Taken from ChEMBL document CHEMBL1961873.

Provide the reported inhibition of each item.
subject-of-test: Fibroblast growth factor receptor 2 (Homo sapiens)
run-conditions: at 1 µM;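 also: reported figure is a mean percent inhibition of FGFR2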
Enter your answer as a number in %; do not include the unit.

Entry `CCCN1CCC=C(c2ccc(Nc3nc(Nc4ccccc4C(N)=O)c4cc[nH]c4n3)c(C)c2)C1` — recorded inhibition = 7.35

Entry `c1cnn2ncc(-c3ccnc(Nc4ccc5c(c4)OCCO5)n3)c2c1` — recorded inhibition = 15.9

Entry `Nc1ncnc2occ(-c3ccc(NC(=O)Nc4cccc(C(F)(F)F)c4)cc3)c12` — recorded inhibition = 52.5

Entry `Nc1nc(-c2ccccn2)c(-c2ccc3ncccc3n2)s1` — recorded inhibition = 7.02

Entry `Cc1ccc(NC(=O)c2ccnc(N3CCCC3)c2)cc1-c1ccc(C(=O)NCC2CC2)cc1` — recorded inhibition = 7.09

Entry `COc1cc2ncn(-c3cc(O[C@@H](C)c4ccccc4Cl)c(C(N)=O)s3)c2cc1OC` — recorded inhibition = 21.9

Entry `CCN1CCC(CC(=O)Nc2n[nH]c3nc(-c4cccs4)c(Br)cc23)CC1` — recorded inhibition = -0.25

Entry `NCc1ccc(-c2nc(-c3ccc(Cl)c(O)c3)c(-c3ccncc3)[nH]2)cc1` — recorded inhibition = 6.76

Entry `CS(=O)(=O)CCNCc1ccc(-c2ccc3ncnc(Nc4ccc(OCc5cccc(F)c5)c(C(F)(F)F)c4)c3c2)o1` — recorded inhibition = 4.51

Entry `Cc1nn(C)c2cc(N(C)c3ccnc(Nc4cccc(S(N)(=O)=O)c4)n3)ccc12` — recorded inhibition = 20.7
